Entry source: patent US20260365670A1

- tested-target: EGFR (d746-750 C797S) (Homo sapiens, UniProt P00533, C797S/DEL746-750)
- Construct: purchased signalchem
- Sequence (P00533 with tags, fused parts or gaps DEL746-750/C797S limits assumed): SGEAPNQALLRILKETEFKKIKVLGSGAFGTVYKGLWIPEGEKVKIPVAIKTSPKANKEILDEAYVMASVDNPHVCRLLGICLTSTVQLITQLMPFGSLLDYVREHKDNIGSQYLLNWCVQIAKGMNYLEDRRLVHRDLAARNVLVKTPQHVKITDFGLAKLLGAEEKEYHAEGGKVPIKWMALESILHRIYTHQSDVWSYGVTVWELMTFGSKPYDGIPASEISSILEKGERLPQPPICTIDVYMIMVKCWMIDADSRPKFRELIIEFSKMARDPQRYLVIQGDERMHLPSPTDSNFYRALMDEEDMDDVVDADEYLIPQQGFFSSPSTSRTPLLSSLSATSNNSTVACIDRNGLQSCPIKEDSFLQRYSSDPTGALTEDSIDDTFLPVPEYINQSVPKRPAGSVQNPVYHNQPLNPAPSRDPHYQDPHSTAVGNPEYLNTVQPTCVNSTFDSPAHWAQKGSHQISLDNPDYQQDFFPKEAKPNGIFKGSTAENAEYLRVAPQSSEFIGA
- test: Inhibition of EGFR (d746-750 C797S) biochemical enzymatic activity (HTRF)
- protocol-conditions: EGFR Del19-C797S, 1 mM ATP, 1 h, room temperature, read-out: IC50 (nM) @Del19-C797S
# Lookup of reported IC50 keyed by entry
I only need the number, in nM, no unit after it.

Previously resolved entries follow.
INSERT INTO assay_data (molecule, measure, unit_string, measured_result) VALUES
  ('C[C@@H]1CCCOc2c(cnn2C)-c2cc(cn(C)c2=O)C(=O)Nc2nc3ccc(N4CCC5(CC4)CCN5C)cc3n2C1 [Example A52]', 'IC50', 'nM', 1.4),
  ('C[C@@H]1CCCOc2c(cnn2C)-c2cc(cn(C)c2=O)C(=O)Nc2nc3ccc(N4CCC(N5CCN(C)CC5)CC4)cc3n2C1 [Example A29]', 'IC50', 'nM', 2.1),
  ('Cn1ncc2c1OCCN1CC3CCC(C3)(C1)n1c(nc3ccc(N4CC(N5CCOCC5)C4)cc31)NC(=O)c1cc-2c(=O)n(C)c1 (single isomer, unassigned) [Example A69A]', 'IC50', 'nM', 1780),
  ('CN1CCC2(CC1)CN(c1ccc3nc4n(c3c1)C13CCC(CN(CCOc5c(cnn5C)-c5cc(cn(C)c5=O)C(=O)N4)C1)C3)C2 (single isomer, unassigned) [Example A77B]', 'IC50', 'nM', 2.1),
  ('Cn1ncc2c1OCCN1CC3CCC(C3)(C1)n1c(nc3ccc(N4CCC(N5CCOCC5)C4)cc31)NC(=O)c1cc-2c(=O)n(C)c1 (single isomer, unassigned) [Example A104B]', 'IC50', 'nM', 4.5),
  ('C[C@@H]1CCCOc2c(cnn2C)-c2cc(cn(C)c2=O)C(=O)Nc2nc3ccc(N4CCC(N(C)C)C(F)(F)C4)cc3n2C1 (stereo partly drawn) [Example A51]', 'IC50', 'nM', 4.7);

Summary for this molecule, CN1CCCC12CN(c1ccc3nc4n(c3c1)C13CCC(CN(CCOc5c(cnn5C)-c5cc(cn(C)c5=O)C(=O)N4)C1)C3)C2 (single isomer, unassigned) [Example A76A] : IC50 is 503

Summary for this molecule, Cn1ncc2c1OCCN1CC3CCC(C3)(C1)n1c(nc3cc(F)ccc31)NC(=O)c1cc-2c(=O)n(C)c1 (stereo not drawn) [Example A117B] : IC50 is 8.1

Summary for this molecule, CN1CCN(c2ccc3nc4n(c3c2)C(C)(C)CCCCOc2c(cnn2C)-c2cc(cn(C)c2=O)C(=O)N4)CC1 [Example A112] : IC50 is 6.6

Summary for this molecule, CN(C)C1CCN(c2ccc3nc4n(c3c2)C23CCC(CC2)CN(CCOc2c(cnn2C)-c2cc(cn(C)c2=O)C(=O)N4)C3)CC1 [Example A119] : IC50 is 4.7

Summary for this molecule, CN1CC2CN(c3ccc4nc5n(c4c3)C34CCC(CC3)CN(CCOc3c(cnn3C)-c3cc(cn(C)c3=O)C(=O)N5)C4)CC2C1 (stereo not drawn) [Example A126] : IC50 is 9.9

Summary for this molecule, C[C@@H]1CCCOc2c(cnn2C)-c2cc(cn(C)c2=O)C(=O)Nc2nc3ccc4c(c3n2C1)CCNC4 [Example A102] : IC50 is 12
